Data credit: paper PMC11168086

Recorded Lipophilic efficiency (LipE = pIC50 – logP), one value per entry.
System: MCF7 (breast cancer) cells
Assay: MTT antiproliferative assay, MCF7
Format: cell-based, human
Details: MCF-7
The reply should be a number, written without any unit.

Worked cases, answers included:
C[C@@H]1CC[C@@H]([C@@](O)(CNCc2ccccc2)COCc2ccccc2)[C@H](OCc2ccccc2)C1 [Compound 34b]: −1.32
COc1ccccc1CNC[C@@](C)(O)[C@@H]1CC[C@@H](C)C[C@H]1OCc1ccccc1 [Compound 12a]: −0.01
C[C@@H]1CC[C@@H]([C@](O)(CNCc2cccc3ccccc23)COCc2ccccc2)[C@H](OCc2ccccc2)C1 [Compound 41a]: −2.64
C[C@@H]1CC[C@@H]([C@](O)(CNCc2ccccc2)COCc2ccc(F)cc2)[C@H](OCc2ccc(F)cc2)C1 [Compound 44a]: −0.59
COc1ccc(CNC[C@](O)(COCc2ccc(OC)cc2)[C@@H]2CC[C@@H](C)C[C@H]2OCc2ccc(OC)cc2)cc1 [Compound 52a]: −0.43
C[C@@H]1CC[C@@H]([C@@](C)(O)Cn2cnc3ccccc32)[C@H](OCc2ccccc2)C1 [Compound 15b]: −0.10

Would you kindly share the measured Lipophilic efficiency (LipE = pIC50 – logP) for C[C@@H]1CC[C@@H]([C@](O)(CNCc2ccc(F)cc2)COCc2ccc(F)cc2)[C@H](OCc2ccc(F)cc2)C1 [Compound 45a] ?
−0.69

---

Tested on: HeLa (cervical cancers) cells
Test: MTT antiproliferative assay, HeLa
Assay type: cell-based, human
attribute.measured: Lipophilic efficiency (LipE = pIC50 – logP)
Respond with the number and no other words.

Examples from the recorded data:
COc1ccc(COC[C@@](O)(CNCc2ccccc2)[C@@H]2CC[C@@H](C)C[C@H]2OCc2ccc(OC)cc2)cc1 [Compound 50a]: −1.23
C[C@@H]1CC[C@@H]([C@](C)(O)CNCc2cccc3ccccc23)[C@H](OCc2ccccc2)C1 [Compound 13a]: −1.04
COc1ccc(CNC[C@@](C)(O)[C@@H]2CC[C@@H](C)C[C@H]2OCc2ccccc2)cc1 [Compound 10a]: −0.03

Need Lipophilic efficiency (LipE = pIC50 – logP) of C[C@@H]1CC[C@@H]([C@](C)(O)CNCc2ccccc2F)[C@H](OCc2ccccc2)C1 [Compound 9a] , thanks.
−0.09

What does the record list as Lipophilic efficiency (LipE = pIC50 – logP) for C[C@@H]1CC[C@@H]([C@](C)(O)CNCc2ccccc2)[C@H](OCc2ccccc2)C1 [Compound 6a] ?
0.09

Entry C[C@@H]1CC[C@@H]([C@](O)(CNCc2cccc3ccccc23)COCc2ccccc2)[C@H](OCc2ccccc2)C1 [Compound 41a] : reported Lipophilic efficiency (LipE = pIC50 – logP) = ?
−2.28

Field request: Lipophilic efficiency (LipE = pIC50 – logP) | item: C[C@@H]1CC[C@@H]([C@](C)(O)CNCc2cccc(F)c2)[C@H](OCc2ccccc2)C1 [Compound 8a]
0.00

Consider the molecule C[C@@H]1CC[C@@H]([C@@](O)(CNCc2cccc3ccccc23)COCc2ccccc2)[C@H](OCc2ccccc2)C1 [Compound 41b] and give its measured Lipophilic efficiency (LipE = pIC50 – logP).
−2.27

---

Parameter Lipophilic efficiency (LipE = pIC50 – logP): see the listing below.
Tested on: A2780 (ovarian cancer) cells
Assay: MTT antiproliferative assay, A2780
Format: cell-based, human
Details: A2780
Just the number, please, no unit after it.

As a guide, the following entries are already answered.
COc1ccc(COC[C@@](O)(CNCc2ccc(F)cc2)[C@@H]2CC[C@@H](C)C[C@H]2OCc2ccc(OC)cc2)cc1 [Compound 51a]: −0.80
C[C@@H]1CC[C@@H]([C@](O)(CNCc2cccc3ccccc23)COCc2ccccc2)[C@H](OCc2ccccc2)C1 [Compound 41a]: −2.57
C[C@@H]1CC[C@@H]([C@@](O)(CNCc2ccccc2)COCc2ccc(F)cc2)[C@H](OCc2ccc(F)cc2)C1 [Compound 44b]: −0.97
C[C@@H]1CC[C@@H]([C@](C)(O)CNCc2cccc(F)c2)[C@H](OCc2ccccc2)C1: −0.25
C[C@@H]1CC[C@@H]([C@](O)(CNCc2ccccc2)COCc2ccccc2)[C@H](OCc2ccccc2)C1 [Compound 34a]: −1.36

Item COc1ccc(CNC[C@@](C)(O)[C@@H]2CC[C@@H](C)C[C@H]2OCc2ccccc2)cc1 [Compound 10a] with A2780 (ovarian cancer) cells - Lipophilic efficiency (LipE = pIC50 – logP)?
−0.25

// map C[C@@H]1CC[C@@H]([C@](C)(O)CNCc2ccccc2)[C@H](OCc2ccccc2)C1 to recorded Lipophilic efficiency (LipE = pIC50 – logP) (system: A2780 (ovarian cancer) cells)
0.12

---

System: MCF7 (breast cancer) cells
Test: MTT antiproliferative assay, MCF7
Assay type: cell-based, human
Conditions: MCF-7
In plain terms, low Lipophilic efficiency (LipE = pIC50 – logP), meaning strictly below -0.8, gives True, and everything else gives False.

For orientation, consider the following solved cases.
C[C@@H]1CC[C@@H]([C@@](O)(CNCc2cccc3ccccc23)COCc2ccccc2)[C@H](OCc2ccccc2)C1 [Compound 41b]: True
C[C@@H]1CC[C@@H]([C@@](O)(CNCc2ccccc2)COCc2ccc(F)cc2)[C@H](OCc2ccc(F)cc2)C1 [Compound 44b]: False
C[C@@H]1CC[C@@H]([C@](O)(CNCc2ccccc2)COCc2ccccc2)[C@H](OCc2ccccc2)C1 [Compound 34a]: True
C[C@@H]1CC[C@@H]([C@](C)(O)Cn2cnc3ccccc32)[C@H](OCc2ccccc2)C1 [Compound 15a]: False
COc1ccc(COC[C@@](O)(CNCc2ccc(F)cc2)[C@@H]2CC[C@@H](C)C[C@H]2OCc2ccc(OC)cc2)cc1 [Compound 51a]: True
COc1ccc(COC[C@@](O)(CNCc2ccccc2)[C@@H]2CC[C@@H](C)C[C@H]2OCc2ccc(OC)cc2)cc1 [Compound 50a]: True
COc1ccc(CNC[C@@](C)(O)[C@@H]2CC[C@@H](C)C[C@H]2OCc2ccccc2)cc1 [Compound 10a]: False
C[C@@H]1CC[C@@H]([C@](C)(O)CNCc2cccc3ccccc23)[C@H](OCc2ccccc2)C1 [Compound 13a]: True

Determine whether this compound shows Lipophilic efficiency (LipE = pIC50 – logP) lower than -0.8 (ties excluded): COc1cccc(CNC[C@@](C)(O)[C@@H]2CC[C@@H](C)C[C@H]2OCc2ccccc2)c1 [Compound 11a]
False

Is -0.8 strictly greater than the compound's reported Lipophilic efficiency (LipE = pIC50 – logP)? compound: C[C@@H]1CC[C@@H]([C@](C)(O)CNCc2ccccc2F)[C@H](OCc2ccccc2)C1 [Compound 9a]
False

Item C[C@@H]1CC[C@@H]([C@](C)(O)CNCc2cccc(F)c2)[C@H](OCc2ccccc2)C1 [Compound 8a] : Lipophilic efficiency (LipE = pIC50 – logP) beneath -0.8, strictly?
False

Report whether reported Lipophilic efficiency (LipE = pIC50 – logP) is lower than -0.8 (strictly) for C[C@@H]1CC[C@@H]([C@](C)(O)CNCc2ccccc2)[C@H](OCc2ccccc2)C1 [Compound 6a]
False

---

Assay: Kinetic aqueous solubility
Assay type: physicochemical
Conditions: PBS buffer, pH 7.4, aqueous buffer, kinetic from dmso stock
Overview of recorded solubility kinetic at 2 h for various molecules
Give your result in µM as a bare value.

C=C(COCc1ccccc1)[C@@H]1CC[C@@H](C)C[C@H]1OCc1ccccc1 [Compound 30a]: 40.8
C[C@@H]1CC[C@@H]([C@](C)(O)CNCc2ccccc2F)[C@H](OCc2ccccc2)C1: 1.4
COc1ccc(CNC[C@](O)(COCc2ccc(OC)cc2)[C@@H]2CC[C@@H](C)C[C@H]2OCc2ccc(OC)cc2)cc1 [Compound 52a]: 107
C[C@@H]1CC[C@@H]([C@@](C)(O)Cn2cnc3ccccc32)[C@H](OCc2ccccc2)C1 [Compound 15b]: 34.6
C[C@@H]1CC[C@@H]([C@](C)(O)Cn2ccnc2)[C@H](OCc2ccccc2)C1 [Compound 14a]: 4.1

I am curious: what solubility kinetic at 2 h value has been reported for C[C@@H]1CC[C@@H]([C@@](O)(CNCc2ccccc2)COCc2ccc(F)cc2)[C@H](OCc2ccc(F)cc2)C1 [Compound 44b] ?
97

GET /values?readout=solubility kinetic at 2 h&item= C=C(COCc1ccc(OC)cc1)[C@@H]1CC[C@@H](C)C[C@H]1OCc1ccc(OC)cc1 [Compound 30c]
31.5

Find the recorded solubility kinetic at 2 h belonging to C=C(C)[C@@H]1CC[C@@H](C)C[C@H]1OCc1ccc(OC)cc1 and report it.
247

Look up solubility kinetic at 2 h for this molecule: C=C(C)[C@@H]1CC[C@@H](C)C[C@H]1OCc1ccccc1
1.1

Can you look up the measured solubility kinetic at 2 h of C[C@@H]1CC[C@@H]([C@](C)(O)CNCc2ccccc2)[C@H](OCc2ccccc2)C1 for me?
3.3

What measured solubility kinetic at 2 h goes with C[C@@H]1CC[C@@H]([C@](C)(O)CNCc2cccc(F)c2)[C@H](OCc2ccccc2)C1 ?
31.8

Any idea what solubility kinetic at 2 h was measured for C[C@@H]1CC[C@@H]([C@](O)(CNCc2cccc3ccccc23)COCc2ccccc2)[C@H](OCc2ccccc2)C1 [Compound 41a] ?
1

Need solubility kinetic at 2 h of COc1ccc(COC[C@@](O)(CNCc2ccccc2)[C@@H]2CC[C@@H](C)C[C@H]2OCc2ccc(OC)cc2)cc1 [Compound 50a] , thanks.
202

Please look up its solubility kinetic at 2 h: C[C@@H]1CC[C@@H]([C@@](O)(COCc2ccccc2)Cn2ccnc2)[C@H](OCc2ccccc2)C1 [Compound 42a]
7.7

Tell me the measured solubility kinetic at 2 h of C[C@@H]1CC[C@@H]([C@](O)(CNCc2ccccc2)COCc2ccc(F)cc2)[C@H](OCc2ccc(F)cc2)C1 [Compound 44a] , please.
163

Which solubility kinetic at 2 h is listed for C=C(COCc1ccc(F)cc1)[C@@H]1CC[C@@H](C)C[C@H]1OCc1ccc(F)cc1 [Compound 30b] ?
17.6

What value of solubility kinetic at 2 h has been recorded for this entry: COc1cccc(CNC[C@@](C)(O)[C@@H]2CC[C@@H](C)C[C@H]2OCc2ccccc2)c1 [Compound 11a]
82

Returns the measured solubility kinetic at 2 h for the input molecule. Input: C[C@@H]1CC[C@@H]([C@](O)(CNCc2ccc(F)cc2)COCc2ccc(F)cc2)[C@H](OCc2ccc(F)cc2)C1 [Compound 45a]
122
